Documented upper left quadrant, percent of cells AF647+ / hTcRβ-PerCP- across a set of binders
target: T1, human CD3e (T-cell surface glycoprotein CD3 epsilon chain) (human, UniProt P07766 23-207); test: flow cytometry, human PBMC, antibody 1 ug/mL, anti-human IgG Fc-Alexa Fluor647 (1:500), anti-hTcRβ-PerCP (1:30)
T1 construct: Target of the anti-hCD3e antibodies on human PBMC, Jurkat cells and cells expressing human CD3e; on T cells it is part of the CD3/TCR complex; also called hCD3e; CD3e on human PBMC
Write it as a number; the unit % goes unstated.

Consider the reported upper left quadrant, percent of cells AF647+ / hTcRβ-PerCP- for these binders:
10A4-H3K2-IgG1-LALA (antibody, V domains shown, Humanized; human IgG1 with LALA mutations; also called H3K2 (humanized 10A4)) VH: QVQLVQSGAEVKKPGASVKISCKASGYTFTSYYIHWVRQRPGQRLEFIGWIYPGNVNAKYNEKFKGRATLTTDKSASTAYMELSSLRSEDTAVYFCAIKGGNYDWGQGTLVTVSS VL: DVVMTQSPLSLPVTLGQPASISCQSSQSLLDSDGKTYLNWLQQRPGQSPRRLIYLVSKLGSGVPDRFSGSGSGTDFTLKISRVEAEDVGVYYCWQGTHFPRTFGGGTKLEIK; 12.4
10A4-H1K2-IgG1-LALA (antibody, V domains shown, Humanized; human IgG1 with LALA mutations; also called H1K2 (humanized 10A4)) VH: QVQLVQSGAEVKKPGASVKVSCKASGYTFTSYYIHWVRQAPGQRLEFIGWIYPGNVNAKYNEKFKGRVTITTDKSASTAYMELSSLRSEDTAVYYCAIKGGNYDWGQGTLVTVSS VL: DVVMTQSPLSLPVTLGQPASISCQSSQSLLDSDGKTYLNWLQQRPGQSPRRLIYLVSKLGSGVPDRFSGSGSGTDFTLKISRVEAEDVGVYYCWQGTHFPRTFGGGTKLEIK; 13.5
10A4-H2K1-IgG1-LALA (antibody, V domains shown, Humanized; human IgG1 with LALA mutations; also called H2K1 (humanized 10A4)) VH: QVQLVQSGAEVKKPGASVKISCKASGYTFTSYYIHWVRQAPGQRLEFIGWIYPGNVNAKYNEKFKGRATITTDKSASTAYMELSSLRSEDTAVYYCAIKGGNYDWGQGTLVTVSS VL: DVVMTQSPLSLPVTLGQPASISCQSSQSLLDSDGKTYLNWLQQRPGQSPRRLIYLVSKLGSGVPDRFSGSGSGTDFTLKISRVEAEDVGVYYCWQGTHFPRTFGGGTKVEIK; 11.6

If you can, please state the reported upper left quadrant, percent of cells AF647+ / hTcRβ-PerCP- value of 10A4-H1K1-IgG1-LALA (antibody, V domains shown, Humanized; human IgG1 with LALA mutations; also called H1K1 (humanized 10A4)) VH: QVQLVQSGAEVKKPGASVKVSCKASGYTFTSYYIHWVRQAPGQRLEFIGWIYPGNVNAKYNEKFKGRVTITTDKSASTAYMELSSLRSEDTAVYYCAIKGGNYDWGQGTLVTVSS VL: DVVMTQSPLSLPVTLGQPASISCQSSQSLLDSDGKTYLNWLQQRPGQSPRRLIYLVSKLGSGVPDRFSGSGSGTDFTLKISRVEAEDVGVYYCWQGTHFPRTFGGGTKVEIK .
11.9

Every entry's value here was drawn from patent US20210269525A1.
